All figures here come from patent US8329739B2.

Entries annotated with measured melting point

These solved cases illustrate the format of a correct answer.
COc1cc(-c2c[nH]c(-c3cccc(F)c3)n2)ccc1OCc1ccc(Br)cc1F.Cl | 244 to 247 °C
COc1cc(OCc2ccccc2)ccc1-c1c[nH]c(-c2ccc(C)cc2)n1 | 219 to 222 °C
COc1cc(-c2c[nH]c(-c3cccc(F)c3)n2)ccc1OCc1ccc(C#N)cc1 | 205 to 209 °C
COc1cc(-c2c[nH]c(-c3ccsc3)n2)ccc1OCc1ccc(C#N)cc1 | 176 to 180 °C
COc1cc(OCc2ccc(C#N)cc2)ccc1-c1c[nH]c(-c2ccc(Cl)c(Cl)c2)n1 | 137 to 140 °C
COc1ccc(-c2nc(-c3ccc(OCc4ccc(Cl)cc4)cc3OC)c[nH]2)cc1 | 170 to 173 °C
COc1cc(-c2c[nH]c(-c3cccc(C(F)(F)F)c3)n2)ccc1OCc1ccc(C#N)cc1.Cl | 231 to 232 °C

Lab note: next molecule to report on.
Form field: reported melting point of `COc1cc(O)ccc1-c1c[nH]c(-c2ccc(C(F)(F)F)cc2)n1`
> 250 °C

---

study-target: LPL (lipoprotein lipase) (Mus musculus, UniProt P11152)
Construct: endogenous in cells; host or cells: C2C12 cells, differentiated
Sequence (P11152 28-474): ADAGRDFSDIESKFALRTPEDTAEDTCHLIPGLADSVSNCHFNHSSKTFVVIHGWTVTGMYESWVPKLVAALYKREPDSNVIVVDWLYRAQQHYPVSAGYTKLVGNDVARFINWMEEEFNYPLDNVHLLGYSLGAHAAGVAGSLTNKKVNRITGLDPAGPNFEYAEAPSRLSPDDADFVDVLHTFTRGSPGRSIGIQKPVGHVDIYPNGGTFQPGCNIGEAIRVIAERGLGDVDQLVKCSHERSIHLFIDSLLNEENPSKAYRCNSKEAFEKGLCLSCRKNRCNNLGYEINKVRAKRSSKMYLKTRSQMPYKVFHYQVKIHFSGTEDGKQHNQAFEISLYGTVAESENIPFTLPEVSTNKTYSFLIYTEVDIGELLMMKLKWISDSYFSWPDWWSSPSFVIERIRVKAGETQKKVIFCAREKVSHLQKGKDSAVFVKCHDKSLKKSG
assay-overview: Confirmation test of LPL activation effect in mouse skeletal muscle cells (C2C12 cells)
Assay type: cell-based
study-conditions: amount of addition 10 μM, 8 hours exposure, vs control group
measured-attribute: Rate of increase in LPL activity (%)

These solved cases illustrate the format of a correct answer.
COc1cc(OCc2ccc(Cl)cc2)ccc1-c1c[nH]c(-c2cc(Cl)cc(Cl)c2)n1.Cl | 80
COc1cc(OCc2ccc(Cl)cc2)ccc1-c1c[nH]c(-c2cccc(C(F)(F)F)c2)n1.Cl | 67

P. COc1cc(-c2c[nH]c(-c3ccc(Cl)cc3)n2)ccc1OCc1ccccc1
Q. COc1cc(-c2c[nH]c(-c3cc(Cl)cc(Cl)c3)n2)ccc1OCc1ccc(Cl)cc1
Lab notebook, comparison: P versus Q , higher Rate of increase in LPL activity goes to which? Reply with the label of the item you choose.
Q
(Q: 60%, P: 31%)

---

study-target: LPL (lipoprotein lipase) (Mus musculus, UniProt P11152)
Construct: endogenous in cells; host or cells: C2C12 cells, differentiated
assay-overview: Confirmation test of LPL activation effect in mouse skeletal muscle cells (C2C12 cells)
Format: cell-based
study-conditions: amount of addition 30 μM, 8 hours exposure, vs control group
measured-attribute: Rate of increase in LPL activity (%)

These solved cases illustrate the format of a correct answer.
COc1cc(OCc2ccc(Br)cc2F)ccc1-c1c[nH]c(-c2cccc(C(F)(F)F)c2)n1.Cl | 150
COc1cc(-c2c[nH]c(-c3ccc(F)cc3)n2)ccc1OCc1ccc(C(F)(F)F)cc1 | 228

A. COc1cc(-c2c[nH]c(-c3cccc(C(F)(F)F)c3)n2)ccc1OCc1ccc(C#N)cc1.Cl
B. COc1cccc(-c2nc(-c3ccc(OCc4ccccc4)cc3OC)c[nH]2)c1.Cl
Which of these two has the smaller recorded Rate of increase in LPL activity: A or B ? Reply with the label of the item you choose.
A

---

Entries annotated with measured melting point

Form field: reported melting point of `COc1cc(OCc2ccc(C#N)cc2)ccc1-c1c[nH]c(-c2ccc(F)cc2)n1.Cl`
189 to 191 °C

---

measured-attribute: melting point

COc1cc(-c2c[nH]c(-c3ccccc3)n2)ccc1OCc1ccc(Br)cc1F.Cl | 224 to 226 °C
COc1cc(OCc2ccccc2)ccc1-c1c[nH]c(-c2ccc(Cl)c(Cl)c2)n1.Cl | 242 to 245 °C
COc1cc(OCc2ccc(Br)cc2F)ccc1-c1c[nH]c(-c2cccc(F)c2)n1.Cl | 240 to 245 °C
COc1cc(O)ccc1-c1c[nH]c(-c2ccccc2)n1 | 232 to 235 °C

Form field: reported melting point of `COc1cc(-c2c[nH]c(-c3ccc(F)cc3)n2)ccc1OCc1cccc(C#N)c1.Cl`
242 to 244 °C

Form field: reported melting point of `COc1cc(OCc2ccc(Br)cc2F)ccc1-c1c[nH]c(-c2ccc(Cl)c(Cl)c2)n1`
260 to 262 °C

Form field: reported melting point of `COc1cc(OCc2ccc(Br)cc2F)ccc1-c1c[nH]c(-c2cccs2)n1.Cl`
249 to 253 °C

Form field: reported melting point of `COc1cc(OCc2ccc(Cl)cc2)ccc1-c1c[nH]c(-c2ccsc2)n1.Cl`
238 to 241 °C

Form field: reported melting point of `COc1ccc(-c2nc(-c3ccc(OCc4ccccc4)c(OC)c3)c[nH]2)cc1`
146 to 148 °C

Form field: reported melting point of `COc1cc(-c2c[nH]c(C(C)C)n2)ccc1OCc1ccccc1`
148 to 152 °C

Form field: reported melting point of `COc1cc(OCc2ccccc2)ccc1-c1c[nH]c(-c2cccs2)n1.Cl`
139 to 142 °C

Form field: reported melting point of `COc1cc(OCc2ccc(Br)cc2F)ccc1-c1c[nH]c(-c2ccc(Cl)cc2)n1`
191 to 195 °C

Form field: reported melting point of `COc1cc(-c2c[nH]c(-c3ccc(F)cc3)n2)ccc1O`
116 to 123 °C

Form field: reported melting point of `COc1cc(OCc2ccc(Cl)cc2F)ccc1-c1c[nH]c(-c2ccc(F)c(F)c2)n1.Cl`
251 to 255 °C

Form field: reported melting point of `CCOC(=O)c1ccc(-c2nc(-c3ccc(OCc4ccccc4)c(OC)c3)c[nH]2)cc1.Cl`
211 to 213 °C

---

Entries annotated with measured melting point

These solved cases illustrate the format of a correct answer.
COc1cc(OCc2ccc(Cl)cc2)ccc1-c1c[nH]c(-c2cccc(Cl)c2)n1.Cl [Example 113] | 223 to 226 °C
COc1cccc(-c2nc(-c3ccc(OCc4ccc(Cl)cc4)cc3OC)c[nH]2)c1.Cl | 256 to 258 °C
COc1cc(O)ccc1-c1c[nH]c(-c2ccc(F)cc2)n1 [Example 107] | > 250 °C
COc1cc(OCc2ccc(Cl)cc2)ccc1-c1c[nH]c(-c2ccccc2C(F)(F)F)n1 [Example 83] | 158 to 161 °C

Form field: reported melting point of COc1cc(OCc2ccc(Br)cc2F)ccc1-c1c[nH]c(-c2ccc(C(F)(F)F)cc2)n1 [Example 18]
167 to 170 °C

Form field: reported melting point of COc1cc(-c2c[nH]c(-c3ccc(C(F)(F)F)cc3)n2)ccc1O [Example 41]
197 to 198 °C

Form field: reported melting point of COc1ccc(-c2nc(-c3ccc(OCc4ccc(Br)cc4F)cc3OC)c[nH]2)cc1OC.Cl [Example 93]
255 to 256 °C

Form field: reported melting point of COc1cc(-c2c[nH]c(C)n2)ccc1OCc1ccccc1 [Example 40]
159 to 163 °C

Form field: reported melting point of COc1cc(-c2c[nH]c(-c3ccc(F)cc3)n2)ccc1OCc1ccc(Cl)cc1.Cl [Example 48]
243 to 245 °C

Form field: reported melting point of COc1cc(-c2c[nH]c(-c3ccccc3)n2)ccc1OCc1ccc(C#N)cc1 [Example 63]
193 to 196 °C

Form field: reported melting point of COc1cc(OCc2ccc(Br)cc2F)ccc1-c1c[nH]c(-c2ccc(F)c(F)c2)n1 [Example 89]
263 to 265 °C

Form field: reported melting point of COc1cc(OCc2ccc(Cl)cc2)ccc1-c1c[nH]c(-c2cccc(C(F)(F)F)c2)n1.Cl [Example 119]
231 to 236 °C

Form field: reported melting point of COc1cc(OCc2ccc(Cl)cc2F)ccc1-c1c[nH]c(-c2ccc(Cl)cc2)n1 [Example 131]
191 to 194 °C

Form field: reported melting point of COC(=O)c1ccc(-c2nc(-c3ccc(OCc4ccccc4)c(OC)c3)c[nH]2)cc1.Cl [Example 38]
222 to 227 °C

Form field: reported melting point of COc1cc(-c2c[nH]c(-c3ccsc3)n2)ccc1OCc1cccc(C#N)c1.Cl [Example 72]
224 to 227 °C

Form field: reported melting point of COc1cc(-c2c[nH]c(-c3ccc(F)cc3)n2)ccc1OCc1ccc(Br)cc1F.Cl [Example 52]
228 to 233 °C

Form field: reported melting point of COc1cc(OCc2ccc(Br)cc2F)ccc1-c1c[nH]c(-c2cccc(Cl)c2)n1.Cl [Example 88]
231 to 236 °C
